# Test system: THRa homodimer (NR concentration 90 nM)
# measurementDescription: PBM binding z-score (relative to random genomic background probes); higher = stronger binding; sequences stand for … in GC…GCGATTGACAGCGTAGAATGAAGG
Assignment: determine reported PBM binding z-score for the given sequences.
Quick one: just the number, no unit, thanks!

Look at this sequence and give its reported PBM binding z-score. `GTACCAAGGTGAATAGGTCGTTGAAGAGTAGGCG` 0.593

Look at this sequence and give its reported PBM binding z-score. `GCTGCTAGGTCAACTGATGGTCAGGTAAAGCTCG` 1.76

Look at this sequence and give its reported PBM binding z-score. `CCAGACAGGTGAAAGGTGACTCAGTCTGGTACGC` 0.239

Look at this sequence and give its reported PBM binding z-score. `TCTAGTTTGTCACGGAGGTCACACACGACGGGTA` 2.96

Look at this sequence and give its reported PBM binding z-score. `CAAACTAGGTCAAAGGTGAAAGTCGAGCCAACCA` 1.03

Look at this sequence and give its reported PBM binding z-score. `CCTTACGGGTCAAGTTTATAGCACGGGTGGTACG` 0.164

Look at this sequence and give its reported PBM binding z-score. `GGAGCGAGGGCAAGTTGATAGCAGAGTTTGATGG` 0.0322

Look at this sequence and give its reported PBM binding z-score. `TAGCCTAGGTCATTCACGGGCCAGTATAGAAAGC` 0.437

Look at this sequence and give its reported PBM binding z-score. `CCTACTAGGCCAAAGGTCATTGATTCCAATGCTC` 1.45

Look at this sequence and give its reported PBM binding z-score. `TAGCCTAGGTCATGAGGGCCAGTATAGTGTCGGC` 0.958

Look at this sequence and give its reported PBM binding z-score. `TTACCAAGGTGAGCTGAGGCCGTTGATCCAACTC` 0.533

Look at this sequence and give its reported PBM binding z-score. `TTACCAAGGAGAAAGGTCGTTGATGCACGCCTTG` -0.13

---

# Tested on: RARa:RXR (NR concentration 270 nM, RXRa partner concentration 90 nM)
# measurementDescription: PBM binding z-score (relative to random genomic background probes); higher = stronger binding; sequences stand for … in GC…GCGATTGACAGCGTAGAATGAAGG
Parameter threshold = 1. Response is class 1 when PBM binding z-score meets or exceeds it, else class 0.

Does PBM binding z-score meet or surpass 1 for `CAAACTAGGTTACGAAAGGTCAAAGTCGAATGAC` ? class 1

Does PBM binding z-score meet or surpass 1 for `TCGAGTAGGTTAGTCGGAGCATTCAGCCAACATA` ? class 0

Does PBM binding z-score meet or surpass 1 for `AGAACGAGGGCACGCTGAGTTGAAAGCAGAGTAG` ? class 1

Does PBM binding z-score meet or surpass 1 for `ATACCAAGGTAATCGTGAGGTCGTTGATACTAAC` ? class 1

Does PBM binding z-score meet or surpass 1 for `CGTCGAAGGTCAAAGGTCAGTGAAGAGATGACGG` ? class 1

---

# Test system: PPARg:RXRa (NR concentration 180 nM, RXRa partner concentration 90 nM)
# measurementDescription: PBM binding z-score (relative to random genomic background probes); higher = stronger binding; sequences stand for … in GC…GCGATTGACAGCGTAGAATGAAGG
recordedEndpoint: PBM binding z-score

Look at this sequence and give its reported PBM binding z-score. `TCATATAGGTAAAGGTTAAAGTCGAACGATATGA` 5.57

Look at this sequence and give its reported PBM binding z-score. `ATCTCTAGGTAAAGCTAGTTCAGTGAATGCAAAT` -0.125

Look at this sequence and give its reported PBM binding z-score. `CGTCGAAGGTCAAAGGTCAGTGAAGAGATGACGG` 10.4

Look at this sequence and give its reported PBM binding z-score. `CGTCCAAGGTCATAGGAGGTCAGTGACGACAGAT` 5.6

Look at this sequence and give its reported PBM binding z-score. `CCTACTGGGCCATCATGTCATTGATATCAACGTT` 1.49

Look at this sequence and give its reported PBM binding z-score. `CCTACTGGCCCAAAGGTCATTGATTCCAATGCTC` 7.37

Look at this sequence and give its reported PBM binding z-score. `CAAACTAGGTCAAGAGCTCAAAGTCCGCTTCCCG` 7.37

Look at this sequence and give its reported PBM binding z-score. `TATACAGGCTCAAAGGCCAGAGTACGAATGTCGA` 1.03

Look at this sequence and give its reported PBM binding z-score. `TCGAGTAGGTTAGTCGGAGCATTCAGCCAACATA` -0.127

Look at this sequence and give its reported PBM binding z-score. `AGAACGAGGGCACGCTGAGTTGTTAGCAGAGTAG` 1.94

Look at this sequence and give its reported PBM binding z-score. `AGTATGAGGTTAAGATCAGGGAAACAGAATACAT` 1.76

Look at this sequence and give its reported PBM binding z-score. `CCAGACAGGTGAAAGGTAACTCTGTCTGGTACGC` 5.57

Look at this sequence and give its reported PBM binding z-score. `TCTCGGAGGACACGCAAGGTCAGAGCTCGACATC` 0.475

Look at this sequence and give its reported PBM binding z-score. `TCTGCTAGGTCAGTTGGTCAGCGAACGAGCTGCC` 0.47

Look at this sequence and give its reported PBM binding z-score. `GCTCGGAAGACAAGGTCAGAGCTTTGTCCGTAGA` 0.0442

Look at this sequence and give its reported PBM binding z-score. `ACTTACGGGTCAACGAGGTAATAGCACGCGTATA` 5.56

Look at this sequence and give its reported PBM binding z-score. `CCTAGTTAGTCAGGAGGTCACACACCGGATATGA` 2.42

Look at this sequence and give its reported PBM binding z-score. `ACTCAAAGTTCACTAGGTAACGTAAGATTCAGCT` 5.15

Look at this sequence and give its reported PBM binding z-score. `CCTCGGAGGACAGAAGGCCAGAGCTGTCCGCTTT` -0.739

Look at this sequence and give its reported PBM binding z-score. `AGAATGAGGTTTTTAAGATCAGGGAATTGCGGTC` 0.144

Look at this sequence and give its reported PBM binding z-score. `TAGCCTAGGTCGGATCGGGCCAGTATACGCTATA` 0.0462

Look at this sequence and give its reported PBM binding z-score. `TGAATGAGGTTAAAGATCAGGGGACGTGGCGTCG` 5.2

Look at this sequence and give its reported PBM binding z-score. `CCGACTGGGGCAAGTTTACCATAACGCACAGCCA` 0.987

Look at this sequence and give its reported PBM binding z-score. `ATCTCTAGGTAATACTCAGTTCAGTGAAGAACGC` 0.424

Look at this sequence and give its reported PBM binding z-score. `TCATATAGTTAAACAGGTGAAAGTCCGTAAGTTA` 1.25

Look at this sequence and give its reported PBM binding z-score. `ATTAGCAGGCCAAGGGTCACTCAAGATTAGTCCG` 7.98

Look at this sequence and give its reported PBM binding z-score. `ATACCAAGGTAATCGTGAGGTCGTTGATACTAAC` 0.484

Look at this sequence and give its reported PBM binding z-score. `CCTATTAGTTGACCGTAAGGGCAACCGAAGCTCG` 0.00382

Look at this sequence and give its reported PBM binding z-score. `CAAACTAGGTCACCGGAAGGTCGAAGTCCGCATG` 9.2

Look at this sequence and give its reported PBM binding z-score. `TCATATAGGTAATTGCTAGGTGAAAGTCCGATCT` 0.771

Look at this sequence and give its reported PBM binding z-score. `CCGACTGGGGCATAGGTTACCATACTCAGTACGA` 8.18

Look at this sequence and give its reported PBM binding z-score. `TCGTATAGGTAAAGGTGAAAGTCGAACGATATGA` 2.34

Look at this sequence and give its reported PBM binding z-score. `TCTTGTAGCTCAATAGAGGTTAAGAAAGTGCGCT` -0.424

Look at this sequence and give its reported PBM binding z-score. `AATTACGGGTCAACGAGGTTATAGCACGCGTATA` 6.93

Look at this sequence and give its reported PBM binding z-score. `CCTCGGAGGCCAACAGGAGGTCAGAGCTGCCAGA` 0.0544

Look at this sequence and give its reported PBM binding z-score. `CGTCCAAGGTCAGAGATGTCAGTGAATGCCGAGT` 2.24

Look at this sequence and give its reported PBM binding z-score. `ATCTAAAGGTCGACGAGGTGAGTATACACCGTTT` 3.31

Look at this sequence and give its reported PBM binding z-score. `CGTCCAAGGCCATAGGAGGTCAGTGAAGACAGAT` 0.688

Look at this sequence and give its reported PBM binding z-score. `GCGAATGGGGCATCAGCAGGTTACCATAACTTAA` 0.281

Look at this sequence and give its reported PBM binding z-score. `TCTCGGACGACACGAAGGTCAGAGCTTTCCAGAG` 0.474

Look at this sequence and give its reported PBM binding z-score. `GCGACTGGGGCATCAGCAGGTTACCATCACTTAA` 0.679

Look at this sequence and give its reported PBM binding z-score. `TGTTGTAGATCAACAGGAGGTTAAGAAAGATCGA` -0.033

Look at this sequence and give its reported PBM binding z-score. `GGAACGAGGGCAAAGTTGATACCATCTGTCGACG` 6.72

Look at this sequence and give its reported PBM binding z-score. `CCTCTGAGGACAGAAGGTCAGAGCTGTCCGCTTT` 0.0496

Look at this sequence and give its reported PBM binding z-score. `TCTTGTAGATCAAGCAGGTTAAGAAGGCCTGAGT` -0.304

Look at this sequence and give its reported PBM binding z-score. `TGGCCTAGGTCATTCAGGGGCCAGTATAGAAAGC` 2.15

Look at this sequence and give its reported PBM binding z-score. `TCTAGTTGCTCACGGAGGTCACACACGACGGGTA` 1.55

Look at this sequence and give its reported PBM binding z-score. `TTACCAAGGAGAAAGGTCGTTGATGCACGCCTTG` 2.36

Look at this sequence and give its reported PBM binding z-score. `ACAGACAGGTGAGTGACGGTAACTCAGCTGGACG` 0.633

Look at this sequence and give its reported PBM binding z-score. `TCTAGTTGGTCAACGGTCACACACTCGAAATGCG` 3.99

Look at this sequence and give its reported PBM binding z-score. `CCTCGGGGGACAACAGGAGGTCAGAGCTGCCAGA` 1.01
